System: RARa:RXR (NR concentration 270 nM, RXRa partner concentration 90 nM)
Assay: PBM binding z-score (relative to random genomic background probes); higher = stronger binding; sequences stand for … in GC…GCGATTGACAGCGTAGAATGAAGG
Exercise: for every item that follows, state its recorded PBM binding z-score.
Provide a numeric answer; units are not to be included.

**Q:** Which measured PBM binding z-score belongs to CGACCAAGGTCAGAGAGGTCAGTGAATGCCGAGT , tested on RARa:RXR (NR concentration 270 nM, RXRa partner concentration 90 nM)?
**A:** 5.78

**Q:** Which measured PBM binding z-score belongs to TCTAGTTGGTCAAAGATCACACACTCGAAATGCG , tested on RARa:RXR (NR concentration 270 nM, RXRa partner concentration 90 nM)?
**A:** 1.77

**Q:** Which measured PBM binding z-score belongs to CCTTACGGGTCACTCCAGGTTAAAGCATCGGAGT , tested on RARa:RXR (NR concentration 270 nM, RXRa partner concentration 90 nM)?
**A:** 4.1

**Q:** Which measured PBM binding z-score belongs to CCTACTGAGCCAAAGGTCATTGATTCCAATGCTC , tested on RARa:RXR (NR concentration 270 nM, RXRa partner concentration 90 nM)?
**A:** 5.91

**Q:** Which measured PBM binding z-score belongs to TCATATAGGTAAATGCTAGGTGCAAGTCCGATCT , tested on RARa:RXR (NR concentration 270 nM, RXRa partner concentration 90 nM)?
**A:** 0.897

**Q:** Which measured PBM binding z-score belongs to CCTAGTTGGTCAGGAGGTAACACACCGGATATGA , tested on RARa:RXR (NR concentration 270 nM, RXRa partner concentration 90 nM)?
**A:** 0.422

**Q:** Which measured PBM binding z-score belongs to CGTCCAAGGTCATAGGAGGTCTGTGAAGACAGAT , tested on RARa:RXR (NR concentration 270 nM, RXRa partner concentration 90 nM)?
**A:** 4.27

**Q:** Which measured PBM binding z-score belongs to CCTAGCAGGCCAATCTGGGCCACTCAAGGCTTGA , tested on RARa:RXR (NR concentration 270 nM, RXRa partner concentration 90 nM)?
**A:** -1.11

**Q:** Which measured PBM binding z-score belongs to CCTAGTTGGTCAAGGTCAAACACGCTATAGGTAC , tested on RARa:RXR (NR concentration 270 nM, RXRa partner concentration 90 nM)?
**A:** 4.41

**Q:** Which measured PBM binding z-score belongs to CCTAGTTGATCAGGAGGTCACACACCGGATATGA , tested on RARa:RXR (NR concentration 270 nM, RXRa partner concentration 90 nM)?
**A:** 5.02

**Q:** Which measured PBM binding z-score belongs to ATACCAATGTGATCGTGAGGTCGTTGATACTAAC , tested on RARa:RXR (NR concentration 270 nM, RXRa partner concentration 90 nM)?
**A:** 1.39

**Q:** Which measured PBM binding z-score belongs to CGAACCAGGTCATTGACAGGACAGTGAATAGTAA , tested on RARa:RXR (NR concentration 270 nM, RXRa partner concentration 90 nM)?
**A:** 2.92
